Exercise: for every item that follows, state its recorded MIC.
tested on: E. coli C 165; assay: MIC, liquid medium test tube series dilution test; type: cell-based; conditions: E. coli C 165, 24 hours, 37°C
Numbers only, in units/ml.

| compound.string | MIC (units/ml) |
| --- | --- |
| CN(C(=O)N[C@@H](C(=O)N[C@@H]1C(=O)N2[C@@H]1SC(C)(C)[C@@H]2C(=O)O)c1ccccc1)C(=O)c1ccccc1 | 6.25 |

// moving on: another record for MIC
Prompt: Look up MIC: Cc1ccc(C(=O)N(C)C(=O)N[C@@H](C(=O)N[C@@H]2C(=O)N3[C@@H]2SC(C)(C)[C@@H]3C(=O)O)c2ccccc2)cc1
Response: 6.25
